The values you see were collected from PubChem BioAssay (NCATS).

# test description: qHTS for Inhibitors of the Functional Ribonucleoprotein Complex (vRNP) of Lassa (LASV) Arenavirus: LASV Primary Screen - GLuc reporter signal (AID 1347082); note: nearly all actives have a fitted effect of over 60% in size
# condition set: LASV minigenome vRNP, Gaussia luciferase reporter; series mostly up to 57.5 µM
Results filed as inconclusive are left out. Calls of active or inactive are those of the source. Calls come from the whole dose curve; tested in HEK293 reporter line.
Your reply should match one of these outcome classes. active, inactive

In this assay, the call recorded for COc1ccc(CCN(C)CCCC(C#N)(c2ccc(OC)c(OC)c2)C(C)C)cc1OC (configuration not stated) was what? inactive

In this assay, the call recorded for CCOC(=O)Cc1ccccc1 was what? inactive

Query: recorded result category for COC1C(O)C(C)OC(OC2CCC3(C=O)C(CCC4C3CCC3(C)C(C5=CC(=O)OC5)CCC43O)C2)C1O (configuration not stated) in this test inactive

// param item: CN(C)C(=O)[C@H](O)[C@H](Cc1ccccc1)NC(=O)c1cc2cc(Cl)ccc2[nH]1 ; yields the recorded call inactive

Test call for this molecule, please: CCC[C@H]1NC(=O)[C@H](C)N(C)C(=O)C(C)(C)C(=O)C(C)NC(=O)[C@H](Cc2ccc(OC)cc2)N(C)C(=O)[C@H](C(C)C)N(C)C(=O)CNC(=O)[C@H](CC(C)C)N(C)C(=O)CNC(=O)[C@H]([C@@H](C)CC)OC(=O)[C@H]1C (some centres not stated) inactive

What was the test verdict on CN(C)CCCc1cc(C(=O)Nc2ccc(-c3ccncc3)cc2)ccc1O ? inactive

Name the outcome recorded for O=c1c(-c2ccc(O)cc2)coc2cc(OC3O[C@H](CO)[C@H](O)[C@H](O)[C@H]3O)cc(O)c12 (some centres not stated) in the assay. active

###

# Test system: Tov112D
# test description: Primary qHTS to identify gynecologic anti-cancer compounds using libraries of approved drugs and bioactive compounds (AID 1345084); note: nearly all actives have a fitted effect of over 55% in size
# condition set: Gynecologic cancer cell panel viability, ATPlite luminescence, 48 h; series mostly up to 57.5 µM
Inconclusive results are not listed. Active and inactive are the calls of the source. The call rests on the fitted dose curve; in most records, active means well fitted cell-killing curve with a large enough effect; inconclusive means small, poorly fitted or top-dose-only effect, or effect the other way; inactive means flat fitted curve, though single readings scatter.
Pick from active, inactive when you respond.

What did the test return for CCC1CC2CN3CCc4c([nH]c5ccccc45)C(C(=O)OC)(C2)C13 (centres undefined) ? inactive

I would be grateful if you could indicate the recorded call for Cc1[nH]c2ccc(Cl)cc2c1CCN(C)C . inactive

State the result this test recorded for CCC1NC(=O)C2C(Cl)C(Cl)CN2C(=O)C(CC)NC(=O)CC(c2ccccc2)NC(=O)C(CO)NC1=O (centres undefined) . inactive

For this compound, state the assay outcome: COC1C(O)C(C)OC(OC2C(CO)O[C@@H](O[C@@H]3CC4CCC5C(CC[C@]6(C)[C@@H](C7=CC(=O)OC7)CC[C@]56O)[C@@]4(C)[C@H](OC(C)=O)C3)C(O)C2O)C1O (some centres undefined) active

What did this assay record as the result for CC1CCCC(O)CCC/C=C/c2cc(O)cc(O)c2C(=O)O1 (centres undefined) ? inactive

So what was the verdict on N#CC(O[C@@H]1O[C@H](CO)[C@@H](O)[C@H](O)[C@H]1O)c1ccccc1 (some centres undefined) in this test? inactive

# fetch the recorded call for CN1CCC2=C(C1)c1ccccc1Cc1ccccc12 here inactive

GET /call?item= CC1=CC2(O)/C=C/C(C)(O)C(O)C(O)/C=C/C(=O)OC23C(=O)NC(CC(C)C)C3C1C (centres undefined) returns the recorded outcome of this test. inactive

For C[C@@H]1C[C@@H](O)[C@]2(O)O[C@@H]3C[C@@]4(C=O)C(CC[C@@H]5C4CC[C@]4(C)[C@@](O)(C6=CC(=O)OC6)CC[C@]54O)C[C@H]3OC2O1 (some centres undefined) , which call appears in the assay record? active

Test call for this compound, please: CN(C)[C@@H]1C(=O)C(C(N)=O)=C(O)[C@@]2(O)C(=O)C3=C(O)c4c(O)ccc(Cl)c4[C@@](C)(O)C3C[C@@H]12 (some centres undefined) inactive

Entry CN[C@@H]1C[C@H]2O[C@@](C)([C@@H]1OC)n1c3ccccc3c3c4c(c5c6ccccc6n2c5c31)C(=O)NC4 : call = ? active

Check the results log: what was the call for CS[C@]1(CO)C(=O)N2[C@H]3C(=CC=C[C@@H]3O)C[C@@]2(SC)C(=O)N1C ? inactive

Field: outcome | Entry: C#CC1(O)CCC2C3CCC4=CC(=O)CCC4=C3C=CC21C (centres undefined) inactive

What did this assay record as the result for Cc1ccc(-n2nccn2)c(C(=O)N2CCN(c3nc4cc(Cl)ccc4o3)CCC2C)c1 (centres undefined) ? inactive

###

# test description: qHTS for Inhibitors of the Functional Ribonucleoprotein Complex (vRNP) of Lassa (LASV) Arenavirus: Viability assay - alamar blue signal for LASV Primary Screen (AID 1347083); note: nearly all actives have a fitted effect of over 80% in size
# condition set: cell viability, alamar blue fluorescence (LASV minigenome counter-screen); series mostly up to 57.5 µM
Records with an inconclusive call do not appear. The source made the active and inactive calls. Calls come from the whole dose curve; tested in HEK293 reporter line.
Your response should consist of one outcome taken from yes (1) (active), no (0) (inactive)

Call for entry COc1ccc2c(c1)CC1c3c(cc4c(c3-2)OCO4)CC[N+]1(C)[O-] (configuration not stated) : no (0)

// return assay outcome for Nc1ncnc2c1ncn2[C@@H]1O[C@H](COP(=O)(O)CP(=O)(O)OP(=O)(O)O)[C@@H](O)[C@H]1O no (0)

Called result for COc1cc2c(cc1O)CCC1C2CC[C@@]2(C)C1CC[C@@H]2O (some centres not stated) yes (1)

What outcome does the record of this test show for CC=C(C)C(=O)O[C@H]1C(C)=C[C@]23C(=O)[C@@H](C=C(CO)[C@@H](O)[C@]12O)[C@H]1[C@@H](C[C@H]3C)C1(C)C ? yes (1)

Record request — test call for N[C@@]1(C(=O)O)CS(=O)(=O)[C@H]2[C@H](C(=O)O)[C@H]21 yes (1)

# fetch the recorded call for CCCCCCCCC(=O)OCC here no (0)

Look up the recorded call for C=C(C)[C@@H]1CCC2=CC(=O)C[C@@H](C)[C@]2(C)C1 in this test. no (0)

Field: outcome | Entry: COc1cc(O)c2c(=O)c3c(O)ccc(O)c3oc2c1 no (0)

Dear all, I need the recorded test outcome for CC(CC=O)CCCC(C)(C)O (configuration not stated) , thank you. no (0)

Please state the recorded outcome for this molecule: Cc1ccc2c(c1)C(=O)[C@]1(O)CCN(c3ccccc3)C1=N2 no (0)

Please indicate how the test categorized CC(C)=CC(=O)O . no (0)

Lab log entry: CC(=O)OC1C(OC(C)=O)C2C(C)CC3OC(=O)C(C)C3CC2(C)C1OC(C)=O (configuration not stated) — outcome as called in the assay? no (0)

Call for entry COc1ccc([C@@H]2[C@@H](O)[C@H](O)[C@@H](C)N2C)cc1OC : no (0)

Check the results log: what was the call for C[C@@H](NC(=O)c1ncnc(N)c1Cl)c1ncc(C(=O)Nc2cc(C(F)(F)F)c(Cl)cn2)s1 ? yes (1)

Tell me the recorded outcome of this test for CCC1=C[C@@H]2CN(C1)Cc1c([nH]c3ccccc13)[C@@](C(=O)OC)(c1cc3c(cc1OC)N(C)[C@@H]1[C@@](O)(C(=O)OC)[C@H](OC(C)=O)[C@]4(CC)C=CCN5CC[C@]31[C@@H]54)C2 . yes (1)

Which result was noted for this molecule in the test: C=C1CCC2C(C)(C)[C@@H](O)CC[C@@]2(C)[C@@H]1COc1ccc2ccc(=O)oc2c1 (some centres not stated) no (0)

Could you please tell me the result logged for Nc1nc(Nc2ccccc2)nc2c1ncn2[C@@H]1O[C@H](CO)[C@@H](O)[C@H]1O in this assay? no (0)

Any idea what this test logged for CC1(C)CCC(NC(=O)[C@@H](N)CCC(=O)O)CC1 ? no (0)

Called result for CN1CCN(c2nc3cc(C(F)(F)F)ccc3n3cccc23)CC1 no (0)

Check the results log: what was the call for CN1CCN(Cc2ccc(NC(=O)Nc3ccc(Oc4cc(NC(=O)C5CC5)ncn4)cc3)cc2C(F)(F)F)CC1 ? yes (1)

Hi, do you know how CCC(C)SSC(C)CC (configuration not stated) came out in this test? no (0)

Lab log entry: CC(C)C[C@H](NC(=O)CNC(=O)c1cc(Cl)ccc1Cl)B1OC(=O)CC(CC(=O)O)(C(=O)O)O1 (some centres not stated) — outcome as called in the assay? yes (1)

Can you look up the reported call for CNCCNS(=O)(=O)c1cccc2cnccc12 for me? no (0)

Tell me the assay call for CC(=O)Oc1ccc2c(C)cc(=O)oc2c1 please. no (0)

Given COC(/C(C)=C/C=C/C(C)=C/c1coc(C)n1)C(C)C1CC(O)C2(C)OC2C=CC(C)C2CC(CC(=O)O2)CC2OC2C(=O)O1 (configuration not stated) , state the outcome it received in this test. no (0)

Could you please tell me the result logged for Cc1nc2sccn2c(=O)c1CCN1CCC(=C(c2ccccc2)c2ccc(F)cc2)CC1 in this assay? no (0)

// param item: O=c1cc(-c2ccc(O)cc2)oc2cc(OC3OC(CO)C(O)C(O)C3O)c(C3OC(CO)C(O)C(O)C3O)c(O)c12 (configuration not stated) ; yields the recorded call no (0)
